Molecular target: T1, GDF15 (ligand used in the GFRAL/RET cell assays) (UniProt Q99988 197-308, limits assumed)
T1 sequence (looked up): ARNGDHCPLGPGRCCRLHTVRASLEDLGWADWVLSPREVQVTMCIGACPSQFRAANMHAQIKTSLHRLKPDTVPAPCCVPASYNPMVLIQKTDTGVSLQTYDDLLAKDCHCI
Experiment: cell-based or functional assay
The following binders are listed with their measured GDF15 GFRAL RET pERK Fab IC50 pM values.

GDF15 antibody agent Clone K, Fab (Fab, V domains shown, Fab; CH1 and CL of the Fab not specified; also called Fab of Clone K) VH: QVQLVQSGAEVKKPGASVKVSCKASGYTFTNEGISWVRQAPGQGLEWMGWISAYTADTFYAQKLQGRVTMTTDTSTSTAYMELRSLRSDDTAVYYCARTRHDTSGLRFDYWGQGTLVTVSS VL: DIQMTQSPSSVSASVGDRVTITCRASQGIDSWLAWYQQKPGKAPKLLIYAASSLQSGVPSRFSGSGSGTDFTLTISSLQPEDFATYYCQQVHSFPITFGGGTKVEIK = 169 pM

Now, please, on to the next binder.
Problem: I'd like to know its GDF15 GFRAL RET pERK Fab IC50 pM. The binder in question is GDF15 antibody agent Clone N, Fab (Fab, V domains shown, Fab; CH1 and CL of the Fab not specified; also called Fab of Clone N) VH: QVQLVQSGAEVKKPGASVKVSCKASGYTFTDYGIFWVRQAPGQGLEWMGWITAYSGDTHYAQKLQGRVTMTTDTSTSTAYMELRSLRSDDTAVYYCVRDTQYGGSPYWGQGTLVTVSS VL: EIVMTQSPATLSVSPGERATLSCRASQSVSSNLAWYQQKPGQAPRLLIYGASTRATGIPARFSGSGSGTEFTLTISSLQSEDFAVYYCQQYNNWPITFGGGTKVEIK
Solution: 322 pM
